Attribution: patent US20220073617A1

# target.system: T1, monovalent hVISTA-ECD (human VISTA extracellular domain with His tail) (human, UniProt Q9H7M9 33-193)
# T1 construct: analyte flowed over captured antibody; also called huVISTA-His
# T1 sequence (Q9H7M9 other isoform, or with tags, fused parts or gaps limits assumed): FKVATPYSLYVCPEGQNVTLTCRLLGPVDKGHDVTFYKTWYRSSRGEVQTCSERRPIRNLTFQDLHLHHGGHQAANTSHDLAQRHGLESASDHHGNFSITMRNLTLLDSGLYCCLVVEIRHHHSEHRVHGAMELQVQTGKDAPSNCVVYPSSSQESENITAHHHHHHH
# experiment: SPR, pH 6.0

binder: P1-064510 (41F11_Vk_A25E/V29D/A64G/R91T) (antibody, V domains shown, also called P1-064510-1) VH: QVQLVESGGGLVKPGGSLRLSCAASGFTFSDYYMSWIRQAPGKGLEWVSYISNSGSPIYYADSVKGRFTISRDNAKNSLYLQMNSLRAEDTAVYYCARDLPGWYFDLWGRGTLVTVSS VL: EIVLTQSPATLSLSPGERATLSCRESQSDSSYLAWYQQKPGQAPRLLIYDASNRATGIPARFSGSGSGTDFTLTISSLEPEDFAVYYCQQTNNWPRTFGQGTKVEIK
kon, M⁻¹ s⁻¹: 1.2e+06
//
binder: P1-065326 (41F11_VH_D31E/Y50W/S55E/L96E/Y100E VK_A64G) (antibody, V domains shown, Kabat positions; also called P1-065326-1) VH: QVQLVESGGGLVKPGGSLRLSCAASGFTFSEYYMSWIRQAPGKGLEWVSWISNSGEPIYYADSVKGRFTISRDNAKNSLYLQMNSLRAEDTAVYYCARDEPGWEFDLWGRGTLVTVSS VL: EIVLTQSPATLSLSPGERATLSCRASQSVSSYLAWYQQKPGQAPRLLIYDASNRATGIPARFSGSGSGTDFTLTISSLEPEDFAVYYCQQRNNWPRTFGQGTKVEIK
kon, M⁻¹ s⁻¹: 2.9e+06
